- test_target: penetratin (AntP) peptide (Drosophila melanogaster)
- Construct: C-terminal amide (CONH2); made in house; host or cells: chemical synthesis (Fmoc solid-phase peptide synthesis)
- procedure_summary: Conjugation of activated disulfide-MMAE molecules to penetratin (AntP) peptide (% Product)
- assay_setup: peptide 25 uM, disulfide MMAE 5 equivalents, 75 mM Tris pH 8.5 and 10% DMF, ~16 hours at room temperature, UV peak area
Where a SMILES comes first, the peptide text is derived from it. [ ]: non-standard residue; d: D form. The star is where a group is joined. X6 = CC(C)(COC(=O)*)SSc1nc2c([N+](=O)[O-])cccc2[nH]1; Dolaproine = CO[C@@H]([C@@H]1CCCN1)[C@@H](C)C(=O)O; X3 = CC(C)(COC(=O)*)SSc1ccc([N+](=O)[O-])cn1; Dil = CC[C@H](C)[C@H](NC)[C@@H](CC(=O)O)OC; X13 = CC(C)(COC(=O)*)SSc1nc2cnccc2[nH]1; X17 = Cn1c(SSC(C)(C)COC(=O)*)nc2ccccc21; X2 = C[C@@H](N*)[C@@H](O)c1ccccc1; NMeV = CN[C@H](C(=O)O)C(C)C
Please respond with reported AntP % P (penetratin (AntP) peptide % product) for every item in the list.
Answers are plain numbers, in %.

- CC[C@H](C)[C@@H]([C@@H](CC(=O)N1CCC[C@H]1[C@H](OC)[C@@H](C)C(=O)N[C@H](C)[C@@H](O)c1ccccc1)OC)N(C)C(=O)[C@@H](NC(=O)[C@H](C(C)C)N(C)C(=O)OCC(C)(C)SSc1nc2c([N+](=O)[O-])cccc2[nH]1)C(C)C (X6-[NMeV]V[Dil][Dolaproine]-X2): 26
- CC[C@H](C)[C@@H]([C@@H](CC(=O)N1CCC[C@H]1[C@H](OC)[C@@H](C)C(=O)N[C@H](C)[C@@H](O)c1ccccc1)OC)N(C)C(=O)[C@@H](NC(=O)[C@H](C(C)C)N(C)C(=O)OCC(C)(C)SSc1nc2cnccc2[nH]1)C(C)C (X13-[NMeV]V[Dil][Dolaproine]-X2): 26
- CC[C@H](C)[C@@H]([C@@H](CC(=O)N1CCC[C@H]1[C@H](OC)[C@@H](C)C(=O)N[C@H](C)[C@@H](O)c1ccccc1)OC)N(C)C(=O)[C@@H](NC(=O)[C@H](C(C)C)N(C)C(=O)OCC(C)(C)SSc1nc2ccccc2n1C)C(C)C (X17-[NMeV]V[Dil][Dolaproine]-X2): 7.5

Now for the molecule whose AntP % P (penetratin (AntP) peptide % product) we want.
Query block: Write down the reported AntP % P (penetratin (AntP) peptide % product) of CC[C@H](C)[C@@H]([C@@H](CC(=O)N1CCC[C@H]1[C@H](OC)[C@@H](C)C(=O)N[C@H](C)[C@@H](O)c1ccccc1)OC)N(C)C(=O)[C@@H](NC(=O)[C@H](C(C)C)N(C)C(=O)OCC(C)(C)SSc1ccc([N+](=O)[O-])cn1)C(C)C (X3-[NMeV]V[Dil][Dolaproine]-X2) , test system: penetratin (AntP) peptide (Drosophila melanogaster).
Result block: 14
